# Experiment: Apparent permeability across apical to basolateral side in human Caco-2 cells
# Assay type: ADME, cell-based
Metric name: Papp A→B
The reply must contain the numeric value and, after it, the unit.

Qu. // query Papp A→B value for entry C#Cc1ccnc(C#Cc2ccc3ncn(-c4ccnc(N)n4)c3c2)n1
Ans. 0.33 ×10⁻⁶ cm/s
